target entity: 5-HT7 (Homo sapiens)
Construct: purchased Euroscreen/BioSignal Packard Inc
Sequence (P34969 whole entry): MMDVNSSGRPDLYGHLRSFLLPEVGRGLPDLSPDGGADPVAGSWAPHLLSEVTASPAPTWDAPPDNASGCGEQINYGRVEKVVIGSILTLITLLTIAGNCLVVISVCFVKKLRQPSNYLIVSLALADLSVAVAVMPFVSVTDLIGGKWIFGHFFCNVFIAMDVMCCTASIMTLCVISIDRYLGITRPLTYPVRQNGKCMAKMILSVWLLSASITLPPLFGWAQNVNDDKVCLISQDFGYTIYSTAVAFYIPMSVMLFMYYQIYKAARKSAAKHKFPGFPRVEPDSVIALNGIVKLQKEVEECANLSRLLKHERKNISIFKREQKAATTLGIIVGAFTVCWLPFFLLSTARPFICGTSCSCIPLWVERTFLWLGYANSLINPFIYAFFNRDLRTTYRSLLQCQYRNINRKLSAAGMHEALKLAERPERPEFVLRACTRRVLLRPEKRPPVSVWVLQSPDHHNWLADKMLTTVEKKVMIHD
test: Radioligand binding, 5-HT7 ([3H]LSD)
condition summary: Table 4; [3H]LSD 3 nM; read-out: Binding affinity, IC50 (nM) 5-HT7
measurement name: IC50 (nM)

compound	measurement name	output unit	measured
COc1ccc([C@@]2(C)C(=O)c3c(N4CCNCC4)cc(Cl)cc3N(Cc3ccccc3)C2=O)cc1	IC50	nM	5850
CC1(c2ccccc2)C(=O)c2c(N3CCNCC3)cc(Cl)cc2N(Cc2ccccc2)C1=O (stereo not shown)	IC50	nM	5070
CC1(c2ccc(O)cc2)C(=O)c2c(N3CCNCC3)cc(Cl)cc2N(Cc2ccccc2O)C1=O (stereo not shown)	IC50	nM	7340
